RUN_DESCRIPTION: Pharmacokinetic study in rats after oral administration of Naoxintong capsule (NXTC), plasma levels by HPLC-MS/MS
TEST_CONTEXT: male, Sprague-Dawley, rat, plasma, po, 0.5 g/kg
METRIC_NAME: MRT last (h)

>  <SMILES_ENTRY>
C[C@H]1COC2=C1C(=O)C(=O)c1c2ccc2c1CCCC2(C)C

>  <ENDPOINT_UNIT>
h

>  <TEST_VALUE>
3.06

$$$$
>  <SMILES_ENTRY>
O=C(O)/C=C/c1ccc(O)c(O)c1

>  <ENDPOINT_UNIT>
h

>  <TEST_VALUE>
1.33

$$$$
>  <SMILES_ENTRY>
Cc1coc2c1C(=O)C(=O)c1c-2ccc2c1CCCC2(C)C

>  <ENDPOINT_UNIT>
h

>  <TEST_VALUE>
5.48

$$$$
>  <SMILES_ENTRY>
COc1ccc(-c2coc3cc(O)ccc3c2=O)cc1

>  <ENDPOINT_UNIT>
h

>  <TEST_VALUE>
0.56

$$$$

====

RUN_DESCRIPTION: Pharmacokinetic study in rats after oral administration of Naoxintong capsule (NXTC), plasma levels by HPLC-MS/MS
TEST_CONTEXT: male, Sprague-Dawley, rat, plasma, po, 1.5 g/kg
METRIC_NAME: MRT inf (h)

>  <SMILES_ENTRY>
O=C(O)/C=C/c1ccc(O)c(O)c1

>  <ENDPOINT_UNIT>
h

>  <TEST_VALUE>
2.72

$$$$
>  <SMILES_ENTRY>
C[C@H]1COC2=C1C(=O)C(=O)c1c2ccc2c1CCCC2(C)C

>  <ENDPOINT_UNIT>
h

>  <TEST_VALUE>
19

$$$$
>  <SMILES_ENTRY>
COc1ccc(-c2coc3cc(O)ccc3c2=O)cc1

>  <ENDPOINT_UNIT>
h

>  <TEST_VALUE>
25.9

$$$$
>  <SMILES_ENTRY>
Cc1coc2c1C(=O)C(=O)c1c-2ccc2c1CCCC2(C)C

>  <ENDPOINT_UNIT>
h

>  <TEST_VALUE>
27.2

$$$$

====

RUN_DESCRIPTION: Pharmacokinetic study in rats after oral administration of Naoxintong capsule (NXTC), plasma levels by HPLC-MS/MS
TEST_CONTEXT: male, Sprague-Dawley, rat, plasma, po, 1.5 g/kg

>  <COMPOUND>
C[C@H]1COC2=C1C(=O)C(=O)c1c2ccc2c1CCCC2(C)C [Cryptotanshinone, cryptotanshinone]

>  <AUC(0-inf)>
0.0552 µg·h/mL

$$$$
>  <COMPOUND>
O=C(O)/C=C/c1ccc(O)c(O)c1 [Caffeic acid, caffeic acid]

>  <AUC(0-inf)>
0.0285 µg·h/mL

$$$$
>  <COMPOUND>
Cc1coc2c1C(=O)C(=O)c1c-2ccc2c1CCCC2(C)C [Tanshinone IIA, tanshinone IIA]

>  <AUC(0-inf)>
0.083 µg·h/mL

$$$$
>  <COMPOUND>
COc1ccc(-c2coc3cc(O)ccc3c2=O)cc1 [Formononetin, formononetin]

>  <AUC(0-inf)>
0.00306 µg·h/mL

$$$$

====

RUN_DESCRIPTION: Pharmacokinetic study in rats after oral administration of Naoxintong capsule (NXTC), plasma levels by HPLC-MS/MS
TEST_CONTEXT: male, Sprague-Dawley, rat, plasma, po, 0.5 g/kg

>  <SMILES_ENTRY>
Cc1coc2c1C(=O)C(=O)c1c-2ccc2c1CCCC2(C)C

>  <ENDPOINT_UNIT>
ng/mL

>  <Cmax>
1.61

$$$$
>  <SMILES_ENTRY>
O=C(O)/C=C/c1ccc(O)c(O)c1

>  <ENDPOINT_UNIT>
ng/mL

>  <Cmax>
9.8

$$$$
>  <SMILES_ENTRY>
COc1ccc(-c2coc3cc(O)ccc3c2=O)cc1

>  <ENDPOINT_UNIT>
ng/mL

>  <Cmax>
0.11

$$$$
>  <SMILES_ENTRY>
C[C@H]1COC2=C1C(=O)C(=O)c1c2ccc2c1CCCC2(C)C

>  <ENDPOINT_UNIT>
ng/mL

>  <Cmax>
0.61

$$$$
